target: recombinant PRL-3 (Homo sapiens, UniProt O75365); construct: 6xHis (N, cleaved yes); made in house; host or cells: E. coli One Shot BL21 Star; test: In vitro phosphatase assay (DiFMUP hydrolysis), PRL-3; format: biochemical; details: FDA-approved drug screen; compared to DMSO; also: test concentration or dose not given here
Sequence (O75365 whole entry): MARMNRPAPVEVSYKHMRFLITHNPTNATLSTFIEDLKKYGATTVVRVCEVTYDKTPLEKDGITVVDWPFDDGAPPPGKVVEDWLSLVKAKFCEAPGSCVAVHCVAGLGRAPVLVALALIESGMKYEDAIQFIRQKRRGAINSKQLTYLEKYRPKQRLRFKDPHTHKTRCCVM
attribute_measured: % Phosphatase Activity (compared to DMSO) PRL-3 (%)
Note: unit % is implicit; provide only the numeric part.

Cc1cc(Nc2ncc(Cl)c(Nc3ccccc3S(=O)(=O)C(C)C)n2)c(OC(C)C)cc1C1CCNCC1 [LDK378] | 114
CC(C)c1cc(C(=O)N2Cc3ccc(CN4CCN(C)CC4)cc3C2)c(O)cc1O [AT13387] | 82
C/C(=C\C(=O)OCCCCCCCCC(=O)O)C[C@@H]1OC[C@H](C[C@@H]2O[C@H]2[C@@H](C)[C@H](C)O)[C@@H](O)[C@H]1O [Mupirocin] | 69
CN(C)c1nc(N(C)C)nc(N(C)C)n1 [Altretamine] | 71

# input For the compound shown here, C[C@@H]1C[C@H]2[C@@H]3CCC4=CC(=O)C=C[C@]4(C)[C@@]3(F)[C@@H](O)C[C@]2(C)[C@@]1(O)C(=O)CO [Dexamethasone (DHAP)] , give the reported % Phosphatase Activity (compared to DMSO) PRL-3.
# output 66

# input For the compound shown here, CCCC(=O)O[C@]1(C(=O)COC(C)=O)CC[C@H]2[C@@H]3C[C@H](F)C4=CC(=O)C=C[C@]4(C)[C@@]3(F)[C@@H](O)C[C@@]21C [Difluprednate] , give the reported % Phosphatase Activity (compared to DMSO) PRL-3.
# output 67

# input For the compound shown here, O=C(O)CCNC(=O)c1ccccc1 [Betamipron] , give the reported % Phosphatase Activity (compared to DMSO) PRL-3.
# output 75

# input For the compound shown here, Cl.Nc1c(Br)cc(Br)cc1CN[C@H]1CC[C@H](O)CC1 [Ambroxol HCl] , give the reported % Phosphatase Activity (compared to DMSO) PRL-3.
# output 98

# input For the compound shown here, CO[C@H]1C[C@@H]2CC[C@@H](C)[C@@](O)(O2)C(=O)C(=O)N2CCCC[C@H]2C(=O)O[C@H]([C@H](C)C[C@@H]2CC[C@@H](O)[C@H](OC)C2)CC(=O)[C@H](C)/C=C(\C)[C@@H](O)[C@@H](OC)C(=O)[C@H](C)C[C@H](C)/C=C/C=C/C=C/1C [Rapamycin (Sirolimus)] , give the reported % Phosphatase Activity (compared to DMSO) PRL-3.
# output 75

* * *

Biological target: recombinant PRL-2 (Homo sapiens, UniProt Q12974)
Construct: 6xHis (N, cleaved yes); made in house; host or cells: E. coli One Shot BL21 Star
Sequence (Q12974 1-167): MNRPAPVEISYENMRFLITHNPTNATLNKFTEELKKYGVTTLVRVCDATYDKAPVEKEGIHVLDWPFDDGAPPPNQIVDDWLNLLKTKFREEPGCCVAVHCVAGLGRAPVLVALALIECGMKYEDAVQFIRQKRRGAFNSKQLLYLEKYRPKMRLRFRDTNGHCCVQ
Test: In vitro phosphatase assay (DiFMUP hydrolysis), PRL-2;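 also: PRL-2 activity read as DiFMUP hydrolysis after 20 min at room temperature with drug, enzyme first pre-reduced at 4 °C for 20 min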
Assay type: biochemical
Conditions: FDA-approved drug screen; compared to DMSO
attribute_measured: % Phosphatase Activity (compared to DMSO) PRL-2 (%)
Note: unit % is implicit; provide only the numeric part.

Worked cases, answers included:
CC(=O)c1c(C)c2cnc(Nc3ccc(N4CCNCC4)cn3)nc2n(C2CCCC2)c1=O.Cl [Palbociclib (PD-0332991) HCl] | 61
COC(=O)[C@H]1[C@H]2C[C@@H]3c4[nH]c5cc(OC)ccc5c4CCN3C[C@H]2C[C@@H](OC(=O)c2cc(OC)c(OC)c(OC)c2)[C@@H]1OC [Reserpine] | 105
CCOc1ccc2nc3cc(N)ccc3c(N)c2c1 [Ethacridine lactate monohydrate] | 215

As a next step, examine the molecule that follows.
# input For the molecule shown here, CC(CN1c2ccccc2Sc2ccccc21)N(C)C.Cl (stereo not shown) [Promethazine HCl] , give the reported % Phosphatase Activity (compared to DMSO) PRL-2.
# output 106

Values were extracted from paper PMC8119466.
